Reference source: the supplement of paper PMC6965134

# ASSAY NAME: TIMS collisional cross section (CCS, N2) of the lipid ion; higher = larger ion cross section
# STUDY CONDITIONS: sample type: plasma; ionization mode: positive; one isomer drawn
RECORDED ENDPOINT: TIMS collisional cross section (Å²)

Reference set, count: 5
CCCCC/C=C\C/C=C\C/C=C\C/C=C\C/C=C\CCC(=O)O[C@H](COC(=O)CCCCCCCCCCCCCCCCC)COP(=O)([O-])OCC[N+](C)(C)C [PC 18:0_22:5] (ion (formula + adduct): [C48H86NO8P+H] 1+)
301
CCCCCCCC/C=C\CCCCCCCCCCCC(=O)OC[C@@H](COC(=O)CCCCCCC/C=C\CCCCCCCC)OC(=O)CCCCCCCCC/C=C\CCCCCCCC [TG 18:1_20:1_22:1] (ion (formula + adduct): [C63H116O6+NH4] 1+)
343
CCCCCCCCCCCCCCCCCCCCCC(=O)O[C@@H](CO)COC(=O)CCCCCCCCCCCCCCCCC [DG 18:0_22:0_0:0] (ion (formula + adduct): [C43H84O5+NH4] 1+)
285.7
CCCCCC/C=C\CCCCCCCCCCOC[C@@H](O)COP(=O)([O-])OCC[N+](C)(C)C [LPC O- 18:1] (ion (formula + adduct): [C26H54NO6P+H] 1+)
233.67
CCCCCCCC/C=C\CCCCCCCC(=O)O[C@H](COC(=O)CCCCCCCCCCCCCCCCC)COC(=O)CCCCCCCCCCCCCCCCCCCCC [TG 18:0_18:1_22:0] (ion (formula + adduct): [C61H116O6+NH4] 1+)
341.9

(P) CCCCCC/C=C\CCCCCCCC(=O)OC[C@@H](COC(=O)CCCCCCCCCCC)OC(=O)CCCCCCCCCCC [TG 12:0_12:0_16:1] (ion (formula + adduct): [C43H80O6+NH4] 1+)
(Q) OC[C@]([H])(OC(CCC/C=C\C/C=C\C/C=C\C/C=C\CCCCC)=O)CO [MG 0:0_20:4_0:0] (ion (formula + adduct): [C23H38O4+H] 1+)
Input line: Parameter metric = TIMS collisional cross section. Return the lower-valued option from P and Q . Please reply using the label of the selected record.
Output line: Q
